These measurements were taken from the NTF2 design screens of Basanta et al. (2020).

# PROTOCOL NOTES: protease stability score; higher = more stable; yeast display proteolysis, trypsin and chymotrypsin
QUANTITY KIND: protease stability score
Response field accepts a number only; no unit should be typed.

Known protease stability score results, listed for orientation:
NEREKWAVDMFEILVHLFFTGDEEIMAHMADPNTQIHYGEYHHHGRDHLRELLREEFKRVDHVEWRLDTVRIIDGRVLIHSHVIHKVGEKTIKREYVIILLKVNGQWHIKHIEIR ... 1.46
DERDEQAEEAMKIWIHSVQTGNEDLLRRLVDPHVRITVGDKEIHGREQFAEYYHRLVTELRIHIHIHRITVINGQVHSHVEIRIQIGDKEISFETRMFILKVDGVWLFKREEVT ... 0.744
SEERKELKDIADEIFERHLTGDWKTFLRLADPNVRLQVNGKDIHGREEVVRWLNEIRYHHLTIHDRTVVDGVVISDVEEDGQVNGQKSRYRVHYVFVVVDGRFKSIHVTIT ... 1.3
DESTSQARKAIEQLIHVEETGDEEMFSTLVDPHVRMDYNGVELHGMEKARNHWNELWKRFKGIKIELKRLEIQGNKVRVQMTYIVGDKNKYVEIHITKIDGQWVITEIHVD ... 1.12
TEDDEWFNEILRLMVEAMKTGDEHILERLLDPHVRIEINGKEIHGREEFVERLEEQQRKFKGIRHELEIKHTEVINGRAHIDGRLHIDVNGRRKIYRVELVILKIDGRWSVEEIRIH ... 1.67

// protease stability score lookup, sequence = `TEEEEENMDFLHKWLERTRTGDEHEIKKLADPDVRLRVGNKEIHGRDLFARWAKEIRITHLDEKRFHIYNGKVDFDGINHVTVNGVDETRKVIFHLVKVDGVWRFKEVDIR` , result: 0.98

Record summary for `TEEQEIIQKFLDEMMEYLETGDEHSLRRLADPHARWDVNGREYHGRELFITFFSELTHKLGWTIQKIEIESKRRVGEYVSFRMTIHSEVDGRHKVIIYNFFVFKVNGKWFLKSFKEE` : reported protease stability score = 1.47

----------
# PROTOCOL NOTES: protease stability score; higher = more stable; yeast display proteolysis, trypsin and chymotrypsin
protease stability score below 1 gives F; protease stability score at or above it gives T.

Consider the following illustrative entries.
DHHEETIRHFAKLWVELWLTGDEKSLQTLADPHVRVHINGVDLHGRDAIHHFLRRIEERYKGLRIDVEEQRIVNGRTEMITEIHIGDKVWRTRLHVVVVDGRIHELSFKDE ... T
HDRKREIDHVLKLWINHFKTGDEDFHERNMDPHVRLHQGNYETHGREEVKKFLKRLFDEFGADHIHIRDYRIDVQGDKITIVMEVEIRVGNYRIDIEFILYVAKVDGKWHVHHYEIRNH ... T
DEHDKHVHEMAERIMRSWHTGDEDTFHKMADPNVRVEIFVNGKNIIRHGREVWKHELERYDHVELRIKSMDAQGDFVHIDGELTINIGDKKHSTTLRIELEFINGRLKRISVHIH ... T
SEEEKLAHEYVRHIIELLETGDEQNVQDLMDPNARSVMIIDGREIYTHGRDAFSHLLKLMGFDHSRLKDIKIYDGRVHSHIEVSVNGREVEVHLIVRKVDGRWVLQETRFHLH ... T
SEKDELLDEILEKLRHDVETGNERLIRKNLDPHVKTDFNGRELHGMDLALRVWREHHEKVKNIRLEIKSVESVDGVVIIHMHVEIDGRHLDVILRWFVVNGRVKSVEIEIK ... F

Alright, here's another sequence for you.
Is protease stability score at least 1? Consider `DEHDEMSQIASEILRTVIETGNENELERMVDPHVKSIVNGRTHHGRETLSELKKKLGWERVHNRIHHVEIVGDKVVVRGSIHWNGRDVRVEFIITKVDGRWIIEEIRFH` T

----------
# PROTOCOL NOTES: protease stability score; higher = more stable; yeast display proteolysis, trypsin and chymotrypsin;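 further: relative to predicted unfolded state with 0 unfolded-like and 1 meaning tenfold more protease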
QUANTITY KIND: protease stability score
Hey, just send me the number, nothing else.

Below, each entry is followed by its recorded protease stability score result.
DEDTEQAERVSHIMLHLYHTGDEEKFNHLADPNVRVEVNGVEIIGRHAFMKHLREIRLHDLRIEEVHIRVFNGRLRIEIKGRMDGHFNGVTKRTEVDILIIVLKVDGRWHVHSFSETIH ... 1.6
DEERENIEKALRLLEHFNKTGNEEDINRLMDPHARSHINGKDVHGREEVVRMLRELGVERIEVEDLEIERSKQVDGRIEIHVHTVVNFNGRHTEFRVEIIAVKVNGKWIMRSVIFE ... 1.56
DEDKKRSEEISKTMIEAMETGDEDRLHELLDPHVRMEIRIGDKHIIDHGREMMLHWSRRYPNLQFRLSHIDVQGDKIHAHWLVHIGDKTRDVELELQVVDGQIHSIHLRIR ... 1.52
HERQKEMETLVELFDEEWLTGNEQTHRRLADPHMKLDVNGKTYHGWKQYNKHLQDFLKRIDHVELEIKRIRVQGEYAHSDGTLRMHYNGVTEERNVHVEINIIDGRLKSVHLKVE ... 1.1

Input `DEIEKSVKHHDQVFRTAIETGDEHELEHLADPNVRWDINGVDLHGRELYLKIVLEIRMRIELRVRDVRWQGNYIIVISEVDSHHHINGVETRDRSDAHLIIFKVNGRWELKESRRH` . Output protease stability score: 1.35

protease stability score for `DEDTKIVEEAIRYHKHNIETGNEEYMDKLADPNTRLEINGVEFHGRESYNHWMRRVLEHWRFHDIKIDSVDVFNGRVRFYGRRIVKIGEFTMIFEITYISTKFNGRWILEEEENR` is 0.564

Note to self: protease stability score recorded for `TEDERILKELAHLLLLLWKTGDENIWRELADPNVRVIFLIGDKEEHHHGRDMFIKLRHDYGVDHMELRRVDVQGDKVRFEGDLWVDGRIHRVHINFSVINGKVHQIKIDFS` was 2.49

----------
# PROTOCOL NOTES: protease stability score; higher = more stable; yeast display proteolysis, trypsin and chymotrypsin;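 further: relative to predicted unfolded state with 0 unfolded-like and 1 meaning tenfold more protease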
QUANTITY KIND: protease stability score
No unit in the answer, only the number.

The sequence listed as `SEWEEFMERMLELVIEVMKTGDFDRFRSLFDPHVKIRIIIGDKHHEFHGWLWLRTLIEKMGIDHLQINVRSYRIIGDKLEVDGELLSHYNGRTSHRTVHYHIVIINGRLHHITIEYH` has a reported protease stability score of 0.214

----------
# PROTOCOL NOTES: protease stability score; higher = more stable; yeast display proteolysis, trypsin and chymotrypsin;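 further: relative to predicted unfolded state with 0 unfolded-like and 1 meaning tenfold more protease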
QUANTITY KIND: protease stability score
Format: numeric value only, no unit, no commentary.

DEERELAKWAEEMLRRRFETGNERFWEELADPNTRSDINGVELIGRETVVHFLREEQRHMGVDHTDVKHTNVELQGDKVIVRMDVELHFDGVTVRSTLSYTSIKFNGRWILHSIEHHIH ... 1.13
SELKEILRKAIELLLRLWVTGDEEELLELFDPNVKLVIGDKIFIGREEFEKVSRHARVKRSDINDFRVQGDKITYDTRMDGHVNGKDIDTTVDIIAVKIDGRWFNHSIIVH ... -0.093
DEEEHEIRQAIELEIRLIETGDFKAMRKMADPHVRTHINIGDKRLDLHGRDFFEWWLRFVKGVTHRFEDFVSVGNKVHIIVQDQVGDKRYEVKIVFKKVDGRWRMTESEVHFE ... 1.83

Please turn your attention to the following entry.
In plain terms, `DEEDEYVEKATRFFIKSILTGNEEWVSRLADPHVRLWVGDKEFHGRERYVRVFHEHMRQIRYRDFKLHDIDRQGDKIIVIGRREVEVDGRIDTYEIHIYARKINGRWILESEIVN` has a documented protease stability score of 0.936

----------
# PROTOCOL NOTES: protease stability score; higher = more stable; yeast display proteolysis, trypsin and chymotrypsin;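 further: relative to predicted unfolded state with 0 unfolded-like and 1 meaning tenfold more protease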
// label = true (1) if protease stability score is not less than 1, otherwise false (0)

DESTHNRKIAVEILEHDNKTGDEKSIFRLFDPHVKIEVDGRDYHGREFFEEFIRKLGWTNIELTIKDVRSIGEFAEMRMEVRYGDWHFHTKVDVKKYNGQWLNREVRIA ... true (1)
SEDDELVTRMFKVWLHDWITGNEEQIHRMVDPDYRLEIGDKDIHGMEASLHWLRKIKNIQFRFHLEHVDVVNGKAKSEGRYIEEFEGVKIDRDVELYLHIVDGRIKSMSIHKR ... true (1)
DEDTEEWRHLLEEYREFIETGDEDYLRTMLDPHVRVVVNGRDHHGWKAFNFMLRHIRVRHVHIHDIRLFNGQVEVDSRIDGIVNGRRLIFRLDIVAFKIDGQWIAQSFTII ... true (1)
DEDKERADEMLEYILHYILTGDEDSLRELFDPHARLHVDGRDIIGWDKFNRKLIEIRQRTRIQSEHIHIQGDKLHVDGTLRINIHYNGQHLHIDLRSIHITVKINGRWVFKFMEIR ... false (0)
DDREEELRKMTELMLKAEQTGDEDHWMHLADPHVRVIVNGREFIGREEWARHHEEHRRKVKNIRIHVRIRDSEVQGDKLILDTELELRIGDKTIIRDVEINMTIINGRLRSLEIRIK ... true (1)
DDEEKSRDIAIEIFVHLLRTGDEHEMSKLADPHVKVNINGRELVGMEIFIEWIRRWSKEIRLHDVKVKDVRTQGDKIEVDGREDGIQGDKRKEVETSFFFRKYNGKWFIERMEFR ... true (1)
TEDEELSHEIFEIWERVRRTGDEHTLERLADPNMRVHIDGQDYHGREMLFEFLNRFKGLKSDIHDMRIEIVGDYIILNIKVHITVNGREIHLTIHLHSRKFNGKWHLKELEIRKI ... true (1)
DHNKELWERIAEWLIRLQETGNEEELMKNMDPHTRLLVNGVTAHGRDTVTHYYREFLKELGVDVLELKRVHVQGEKVENDGQLHYNGKTHHSRINFFVINGRIHHIELHFE ... false (0)
SDYEKEVLDYAHTFLHAFLTGNEFILLKLLDPHVRIEIHFDGVDFLRHGRETFSKRAVDHIREWRVEIRLHDLHVVDGVVHLNTRLHVDYGDKHIHITQHITLFVINGRMKTVHIRHE ... true (1)
HEEEKHLKEMIERLYHYQLTGNWEELHRLADPHAKWHINGQDIHGMHIAVELILKEVRRIDHVDSDSKRIDMQGDKMRSNVHEIIEVGDKSIRRDSILILVIIDGRIREVSIIIL ... true (1)

Decide: is the reported value of protease stability score for `DEDDKLLEKWVKDLREALRTGDEQTLLKLIDPNTRLEIGDKDFHGREVIVKLWKDLGMEIRDVKVHDIKRQGDFLELDIRIDVIINGVRENREHKIYALKVNGKWFVKTQIDE` equal to or greater than 1? true (1)

hey, is protease stability score for this one >= 1? `HEDEESMEHSIRRLIQAIETGDFHELTELADPHVKLTIGDKEYIGREQWEKTLRDLGIDHFDVKRSKLIGDYARVDGKVNVNGQFRDTTVIMKKVDGKWLIRSWHVH` true (1)

// inclusive: protease stability score at least 1? input: `DEEEEEILRVWEILIHLFVTGDEEKFSKMADPDYKWHQGDKSRIGRESMREHIKKFLEELRIKELHLHHTHVFDGRYEADVELRGHINGRESRIKSRIILEVYNGRVKLFIIDIR` false (0)
